Tested on: Jurkat cells
experimentNotes: Cell cytotoxicity assay (r)
Type: cell-based, human
experimentalSetup: 24 hours, 20 μg/mL
API: label(entry) gives satisfied if the entry's % Viability at 20 μg/mL is strictly smaller than 0.6%; on equality or larger values it gives not satisfied.

// known answers, use as guide
COc1cc(Nc2cc(Oc3ccc(NC(=O)Nc4cc(C(C)(C)C)cc(NS(C)(=O)=O)c4OC)c4ccccc34)ccn2)ccc1S(=O)(=O)N(C)CCN1CCN(C)CC1 [17(bb)] = satisfied
COc1cc(Nc2cc(Oc3ccc(NC(=O)Nc4cc(C(C)(C)C)cc(NS(C)(=O)=O)c4OC)c4ccccc34)ccn2)ccc1-n1ccccc1=O [Example 31] = not satisfied
COc1cc(Nc2nccc(Oc3ccc(NC(=O)Nc4cc(C(C)(C)C)cc(NS(C)(=O)=O)c4OC)c4ccccc34)n2)ccc1C(=O)NCCCN1CCOCC1 [17(ao)] = not satisfied
COc1cc(Nc2cc(Oc3ccc(NC(=O)Nc4cc(NS(C)(=O)=O)cc(C(C)(C)C)c4)c4ccccc34)ccn2)ccc1C(=O)NCCCN1CCN(C)CC1 [17(bp)] = not satisfied
COc1cc(Nc2cc(Oc3ccc(NC(=O)Nc4cc(C(C)(C)C)cc(NS(C)(=O)=O)c4OC)c4ccccc34)ccn2)ccc1C(=O)NCCN1CC[C@@H](O)C1 [17(cr)] = not satisfied

Inquiry: % Viability at 20 μg/mL under 0.6%? Item: COc1cc(Nc2cc(Oc3ccc(NC(=O)Nc4cc(C(C)(C)C)cc(NS(C)(=O)=O)c4OC)c4ccccc34)ccn2)ccc1C(=O)NCCC1CCN(C)CC1 [Example 14]
Reply text: not satisfied

Inquiry: Request: COc1cc(Nc2cc(Oc3ccc(NC(=O)Nc4cc(C(C)(C)C)cc(NS(C)(=O)=O)c4OC)c4ccccc34)ccn2)ccc1C(=O)NCCC1CCNCC1 [Example 27]
Reply text: not satisfied

Inquiry: // same read-out, input: CCN1CCN(CCNC(=O)c2ccc(Nc3cc(Oc4ccc(NC(=O)Nc5cc(C(C)(C)C)cc(NS(C)(=O)=O)c5OC)c5ccccc45)ccn3)cc2OC)CC1 [17(be)]
Reply text: satisfied

Inquiry: Cool, now COCCN(C)CCNC(=O)c1ccc(Nc2cc(Oc3ccc(NC(=O)Nc4cc(C(C)(C)C)cc(NS(C)(=O)=O)c4OC)c4ccccc34)ccn2)cc1OC [17(ad)]
Reply text: satisfied

Inquiry: Please do the same for COc1cc(Nc2cc(Oc3ccc(NC(=O)Nc4cc(C(C)(C)C)cc(NS(C)(=O)=O)c4OC)c4ccccc34)ccn2)ccc1C(=O)NCCN1CCCCC1 [17(p)] as well.
Reply text: not satisfied
